biological target: HDAC8 (Homo sapiens); test: HDAC8 activity assay; format: biochemical; settings: at tested concentrations
Sequence (Q9BY41 whole entry): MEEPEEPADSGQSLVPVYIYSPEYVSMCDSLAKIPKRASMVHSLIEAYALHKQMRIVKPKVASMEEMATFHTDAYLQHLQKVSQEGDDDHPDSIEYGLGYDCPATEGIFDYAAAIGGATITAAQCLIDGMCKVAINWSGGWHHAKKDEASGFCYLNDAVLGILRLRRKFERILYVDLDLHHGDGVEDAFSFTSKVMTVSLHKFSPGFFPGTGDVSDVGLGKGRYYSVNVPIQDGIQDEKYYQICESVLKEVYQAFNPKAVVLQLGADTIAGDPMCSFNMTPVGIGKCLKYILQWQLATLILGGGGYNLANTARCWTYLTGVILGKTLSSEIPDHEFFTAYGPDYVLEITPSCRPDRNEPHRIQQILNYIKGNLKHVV
quantity.name: HDAC8 inhibition (in words)

Use the examples below as a reference point.
O=C(COc1ccc2cc(/C=C3/SC(=O)NC3=O)ccc2c1)Nc1ccc(F)cc1F    inactive
Cc1ccc(NC(=O)COc2ccc3cc(/C=C4/SC(=O)NC4=O)ccc3c2)cc1Cl    not active
O=C(COc1ccc2cc(/C=C3/SC(=O)NC3=O)ccc2c1)Nc1c(F)cc(F)cc1Br    inactive
O=C(COc1ccc2cc(/C=C3/SC(=O)NC3=O)ccc2c1)Nc1ccc(Br)cc1F    inactive

With those in mind, consider the next compound.
Name the recorded HDAC8 inhibition (in words) for O=C(COc1ccc2cc(/C=C3/SC(=O)NC3=O)ccc2c1)Nc1ccc(Br)c(Br)c1 .
not active

###

tested on: Ramos (Burkitt's B-cell lymphoma); conditions: selective cytotoxicity index
Parameter SCI (CC50 HS-27/CC50 cancer), Ramos: see the listing below.
Give the figure by itself; no unit, no explanation.

O=C(COc1ccc2cc(/C=C3/SC(=O)NC3=O)ccc2c1)Nc1c(F)cc(F)cc1Br    4.2

Now consider the entry below.
May I ask what SCI (CC50 HS-27/CC50 cancer), Ramos has been recorded for Cc1ccc(NC(=O)COc2ccc3cc(/C=C4/SC(=O)NC4=O)ccc3c2)cc1 ?
5.8

###

// reported SCI (CC50 HS-27/CC50 cancer), HeLa for each item listed
system: HeLa (cervical adenocarcinoma); settings: selective cytotoxicity index

// below: answered compounds
COc1cccc(NC(=O)COc2ccc3cc(/C=C4/SC(=O)NC4=O)ccc3c2)c1    >10
Cc1cc(Br)ccc1NC(=O)COc1ccc2cc(/C=C3/SC(=O)NC3=O)ccc2c1    >10
Cc1ccc(NC(=O)COc2ccc3cc(/C=C4/SC(=O)NC4=O)ccc3c2)cc1    3.9
O=C(COc1ccc2cc(/C=C3/SC(=O)NC3=O)ccc2c1)Nc1c(F)cc(F)cc1Br    3.8
O=C(COc1ccc2cc(/C=C3/SC(=O)NC3=O)ccc2c1)Nc1ccccc1Oc1ccccc1    >10

Note: attention shifts to another entry.
Notebook: pull reported SCI (CC50 HS-27/CC50 cancer), HeLa for HeLa (cervical adenocarcinoma), entry O=C(COc1ccc2cc(/C=C3/SC(=O)NC3=O)ccc2c1)Nc1ccc(Br)cc1
>10

###

tested on: Ramos (Burkitt's B-cell lymphoma); settings: selective cytotoxicity index
# key: entry, value: SCI (CC50 HS-27/CC50 cancer), Ramos

Answered cases to consult:
O=C(COc1ccc2cc(/C=C3/SC(=O)NC3=O)ccc2c1)Nc1ccccc1Oc1ccccc1 [7j]    >10
O=C(COc1ccc2cc(/C=C3/SC(=O)NC3=O)ccc2c1)Nc1cccc(Cl)c1 [7f]    >10

Read the next record carefully.
Could you share which SCI (CC50 HS-27/CC50 cancer), Ramos value was measured for COc1cccc(NC(=O)COc2ccc3cc(/C=C4/SC(=O)NC4=O)ccc3c2)c1 [7g] ?
>10

Reference source: paper PMC10926851
